System: NCI-H226 lung
Experiment: NCI tumour cell line growth inhibition, 48 h
Reported GI50 values are given for each entry in this list.

{"columns": ["smilesString", "GI50"],
 "data": [
  ["N#Cc1nc(-c2ccc(F)cc2)oc1S(=O)(=O)N1CCOCC1", "4.33 µM"],
  ["CC(=O)c1ccc(N(/C=C/C(=O)C(F)(F)F)CC(=O)c2ccc(Cl)c(Cl)c2)cc1", "10.9 µM"],
  ["COC(=O)c1c2c(c(C)[n+]([O-])c1C)C(=O)C=CC2=O", "1.42 µM"],
  ["COc1ccc(-n2cc(-c3ccc(OC)c(OC)c3)[nH]c2=S)cc1Cl", "> 100 µM"]
]}
